Provenance of the data: ChEMBL document CHEMBL1134563

Test system: E6SM
Assay: Minimum inhibitory concentration required to elicit microscopically visible cell morphology in E6SM cell lines
Format: functional
Conditions: Homo sapiens
Measured Quantity: MIC (µM)
A number alone suffices; assume µM.

Worked examples follow.
INSERT INTO results (compound, obs_value) VALUES
  ('C#CCSC[C@H]1OC(n2cnc3c(N)ncnc32)[C@H](O)[C@@H]1O (stereo not given in full)', 1240),
  ('C=C=CSC[C@H]1OC(n2cnc3c(N)ncnc32)[C@H](O)[C@@H]1O (stereo not given in full)', 1240);

Q. Endpoint output: MIC of CC#CSC[C@H]1OC(n2cnc3c(N)ncnc32)[C@H](O)[C@@H]1O (stereo not given in full) . Value?
A. 1240
